- system-tested: Ubiquitin carboxyl-terminal hydrolase 2 (Homo sapiens) (UniProt O75604)
- Sequence (O75604 whole entry, looked up): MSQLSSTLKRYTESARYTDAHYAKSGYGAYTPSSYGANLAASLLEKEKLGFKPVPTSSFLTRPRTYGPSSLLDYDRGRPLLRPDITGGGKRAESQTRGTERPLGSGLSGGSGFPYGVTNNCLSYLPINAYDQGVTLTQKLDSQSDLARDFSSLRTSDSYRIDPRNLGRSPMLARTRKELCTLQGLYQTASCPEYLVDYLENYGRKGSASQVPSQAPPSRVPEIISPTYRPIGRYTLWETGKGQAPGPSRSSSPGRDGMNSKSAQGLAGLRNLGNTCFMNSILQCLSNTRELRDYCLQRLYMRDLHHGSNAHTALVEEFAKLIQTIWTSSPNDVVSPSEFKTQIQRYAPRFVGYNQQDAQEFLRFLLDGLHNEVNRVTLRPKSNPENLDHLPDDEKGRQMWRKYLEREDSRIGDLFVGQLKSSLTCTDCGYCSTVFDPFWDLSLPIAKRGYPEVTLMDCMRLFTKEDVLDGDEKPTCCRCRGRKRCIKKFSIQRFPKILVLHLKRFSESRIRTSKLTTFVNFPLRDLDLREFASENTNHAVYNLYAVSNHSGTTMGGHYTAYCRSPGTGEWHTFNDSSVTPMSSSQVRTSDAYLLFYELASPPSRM
- assay-info: Ub-rhodamine 110 based assay for inhibitors Ubiquitin-specific Protease USP2a; note: nearly all actives have a fitted effect of over 50% in size
- cond: USP2a Ub-rhodamine110 cleavage, fluorescence; series mostly up to 38.3 µM
Inconclusive results are not listed. Calls of active or inactive are those of the source. Calls come from the whole dose curve; as a rule, active = well fitted inhibition curve with a large enough effect; inconclusive = small, poorly fitted or top-dose-only effect, or effect the other way; inactive = flat fitted curve, though single readings scatter.
Just give me one of these, please: yes (1) (active), no (0) (inactive)

Field: outcome | Entry: O=C(CC1Oc2ccccc2NC1=O)NCc1ccc(Cl)cc1 (centres undefined)
no (0)

Field: outcome | Entry: C#CCOCCOCCOCCNc1nc(N2CCN(C(=O)CCCCCCCCCCNC(=O)Cn3cc(C[C@@H](C)O)nn3)CC2)nc(N2CCN(C(=O)CCCCCCCCCCNC(=O)[C@@H]([C@H](C)CC)n3cc(CCCCCN)nn3)CC2)n1
no (0)

Field: outcome | Entry: CC12CN3CC(C)(CN(C1)C3c1ccc(Cl)cc1Cl)C2O (centres undefined)
no (0)

Field: outcome | Entry: Cc1c2c(=O)n(-c3nc4ccccc4s3)nc-2cc(O)n1Cc1ccccc1
yes (1)

Field: outcome | Entry: COc1ccc(-n2c(=S)[nH]c3cc(C(=O)NCc4ccc(F)cc4)ccc3c2=O)c(OC)c1
no (0)

New cases:
Field: outcome | Entry: CCCCCCCCCCOC(=O)Cn1c(COc2ccccc2)[n+](C)c2ccccc21
no (0)

Field: outcome | Entry: CC(C)(C)CC(C)(C)c1ccc(OCCOCC[N+](C)(C)Cc2ccccc2)cc1
no (0)

Field: outcome | Entry: c1ccc(-c2ccccc2OCCCN2CCOCC2)cc1
no (0)

Field: outcome | Entry: CC(C)C(=O)N=c1sc2cc(F)cc(F)c2n1C
no (0)

Field: outcome | Entry: Cc1cc(=O)oc(C)c1C(=O)NCCc1ccccc1
no (0)

Field: outcome | Entry: O=C(N/C(=C/c1cccnc1)C(=O)N1CCOCC1)c1ccco1
no (0)

Field: outcome | Entry: Cc1ccc(-c2nc(N/N=C/c3ccncc3)c3ccccc3n2)cc1
yes (1)

Field: outcome | Entry: O=S(=O)(NC1CCSc2ccccc21)c1ccccc1 (centres undefined)
no (0)

Field: outcome | Entry: CN(c1ccccc1)S(=O)(=O)c1ccc(Cl)c(C(=O)NCCc2c[nH]c3ccccc23)c1
no (0)

Field: outcome | Entry: O=C(Nc1ccc2nc(-c3ccco3)c(-c3ccco3)nc2c1)N1CCN(c2ccccn2)CC1
yes (1)

Field: outcome | Entry: CCOC(=O)Nc1nnc(CCc2ccccc2)s1
no (0)

Field: outcome | Entry: O=C1c2ccccc2CCC12N=NCC2c1ccc(Br)cc1 (centres undefined)
no (0)

Field: outcome | Entry: O=[N+]([O-])c1ccc2nc(C(O)C(O)c3nc4ccc([N+](=O)[O-])cc4[nH]3)[nH]c2c1 (centres undefined)
yes (1)

Field: outcome | Entry: Cc1cc(N2CCC(C(=O)NC3CC3)CC2)nc(-c2ccccc2)n1
no (0)

###

- system-tested: Ubiquitin carboxyl-terminal hydrolase 2 (Homo sapiens) (UniProt O75604)
- assay-info: Ub-rhodamine 110 based assay for inhibitors Ubiquitin-specific Protease USP2a; note: nearly all actives have a fitted effect of over 50% in size
- cond: USP2a Ub-rhodamine110 cleavage, fluorescence; series mostly up to 38.3 µM
Results filed as inconclusive are left out. Active and inactive are the calls of the source. The call rests on the fitted dose curve; in most records, active means well fitted inhibition curve with a large enough effect; inconclusive means small, poorly fitted or top-dose-only effect, or effect the other way; inactive means flat fitted curve, though single readings scatter.
Just give me one of these, please: YES (active), NO (inactive)

Field: outcome | Entry: Cc1noc(/C=C/c2ccco2)c1S(=O)(=O)N1CCC(C(=O)N(C)Cc2ccccc2)CC1
YES

Field: outcome | Entry: CC(C)c1ccc2c(c1)c(SC(C)(C)C)c(CC(C)(C)C(=O)O)n2Cc1ccc(Cl)cc1
YES

Field: outcome | Entry: COc1ccc(C(=O)OCC(=O)c2c[nH]c3ccccc23)c(OC)c1
NO

Field: outcome | Entry: COc1ccc(CC(=O)c2ccccc2C(=O)O)cc1
NO

Field: outcome | Entry: O=C1c2ccccc2C(=O)N1CCC1=CCCCC1
NO

New cases:
Field: outcome | Entry: O=C(OCC1OC(n2ncc(=O)[nH]c2=O)C(OC(=O)c2ccccc2)C1OC(=O)c1ccccc1)c1ccccc1 (stereo not drawn)
YES

Field: outcome | Entry: O=C(c1ccccc1)N1CCN(C2C3CC4CC(C3)CC2C4)CC1 (stereo not drawn)
NO

Field: outcome | Entry: Cc1ccccc1N=C1NC(=O)CS1
NO

Field: outcome | Entry: Nc1ccc2nc(-c3ccc(N)c(Cl)c3)[nH]c2c1
NO

###

- system-tested: Ubiquitin carboxyl-terminal hydrolase 2 (Homo sapiens) (UniProt O75604)
- assay-info: Ub-rhodamine 110 based assay for inhibitors Ubiquitin-specific Protease USP2a; note: nearly all actives have a fitted effect of over 50% in size
- cond: USP2a Ub-rhodamine110 cleavage, fluorescence; series mostly up to 38.3 µM
Records with an inconclusive call do not appear. Calls of active or inactive are those of the source. The call rests on the fitted dose curve; in most records, active means well fitted inhibition curve with a large enough effect; inconclusive means small, poorly fitted or top-dose-only effect, or effect the other way; inactive means flat fitted curve, though single readings scatter.
Just give me one of these, please: active, inactive

Examples from the recorded data:
Field: outcome | Entry: CCN(C[C@H]1N[C@@](CC)(C(=O)OC)[C@H]2C(=O)N(Cc3ccccc3)C(=O)[C@@H]12)C(=O)Nc1ccc(C)cc1
inactive

Field: outcome | Entry: Cc1ccc(SCc2cc(=O)c3c(=O)n(-c4ccccc4)[nH]c3[nH]2)cc1
inactive

Field: outcome | Entry: O=C1c2ccccc2C(=O)N1CCCCn1c(=O)oc2ccccc21
inactive

Field: outcome | Entry: CC(C)(C)NC(=O)C(c1ccco1)N(C(=O)c1ccc(CN2CCOCC2)o1)c1ccccc1 (stereo not given)
inactive

Field: outcome | Entry: Cc1noc(NS(=O)(=O)c2ccc(N3CC(O)=C(c4ccccc4)C3=N)cc2)c1C
inactive

Field: outcome | Entry: Cc1ccc(O)c(CC(C)C)n1
inactive

Field: outcome | Entry: Cc1cc(C(=O)CSc2nnc(Nc3ccccc3F)s2)c(C)n1CC1CCCO1 (stereo not given)
inactive

Field: outcome | Entry: Cc1ccccc1NC(=O)CSc1nnc(-c2ccco2)c(-c2ccco2)n1
active

New cases:
Field: outcome | Entry: COc1ccc(-c2nnn(CC(=O)N3CCOCC3)n2)cc1
inactive

Field: outcome | Entry: CC1CCN(CC(O)COc2cccc(F)c2)CC1 (stereo not given)
inactive

Field: outcome | Entry: Cc1ccc(C(=O)N/C(=C/c2cccs2)C(=O)NCc2ccco2)cc1
inactive

Field: outcome | Entry: O=C(COC(=O)c1c2c(nc3ccccc13)/C(=C/c1ccco1)CC2)NC1CCCC1
active

Field: outcome | Entry: CCOc1ccc(Cn2nnc(C(=O)NCc3ccccc3)c2N)cc1
inactive

Field: outcome | Entry: O=C(/C=C/c1ccc(O)c(O)c1)c1ccc(S(=O)(=O)N2CCCCCC2)cc1
active

Field: outcome | Entry: COc1ccc(/C=C(\NC(=O)c2ccc(OC)c(OC)c2)C(=O)N2CCN(C)CC2)cc1
inactive
